All values here come from patent US8202879B2.

Test system: BT-474
Experiment: In vitro cell proliferation inhibition, WST assay
Format: cell-based, human
Conditions: Homo sapiens, BT-474, 72 h, BT-474 cells, cultured for 3 days, read-out: BT-474 (nM) proliferation inhibitory activity (IC50 value)
Protocol: Test of In Vitro Cell Proliferation Inhibition of Test Compound As a human-derived cancer cell strain, BT-474 was used. Cells were all cultured in a 37° C., 5% CO2 incubator in a medium in which 10% bovine fetal serum (ICN) and 50 units ml penicillin/60 μg/ml streptomycin solution (GIBCO) were added to Dulbecco's Modified Essential Medium (DMEM, Nacalai Tesque, Inc).
Where a name gives a salt, the structure may show the parent alone.
assay.endpoint: log10 of IC50 (log10 of the value in nM)

{"molecule": "CC#CC(=NOCC1CNCCN1)c1ccc2ncnc(Nc3ccc(OCc4cccc(F)c4)c(Cl)c3)c2c1 (centres unmarked)", "assay.endpoint": "log10 of IC50", "test.value": 1.04}
{"molecule": "CC#C/C(=N\\OCC(=O)NCCO)c1ccc2ncnc(Nc3ccc(OCc4cccc(F)c4)c(Cl)c3)c2c1", "assay.endpoint": "log10 of IC50", "test.value": 0.08}
{"molecule": "CC#C/C(=N\\OC[C@@H]1CCCN1)c1ccc2ncnc(Nc3ccc(OCc4ccccn4)c(Cl)c3)c2c1", "assay.endpoint": "log10 of IC50", "test.value": 1.32}
{"molecule": "CC#C/C(=N\\OCCNCCO)c1ccc2ncnc(Nc3ccc(OCc4ccccn4)c(Cl)c3)c2c1", "assay.endpoint": "log10 of IC50", "test.value": 1.38}
{"molecule": "CC#C/C(=N\\OCCN1CCNC(=O)C1)c1ccc2ncnc(Nc3ccc(OCc4cccc(F)c4)c(Cl)c3)c2c1", "assay.endpoint": "log10 of IC50", "test.value": 1.41}
{"molecule": "CC#C/C(=N\\OCCNC[C@H](C)CO)c1ccc2ncnc(Nc3ccc(OCc4ccccn4)c(Cl)c3)c2c1", "assay.endpoint": "log10 of IC50", "test.value": 1.48}
{"molecule": "C=CC(=O)N1CCN(CCON=Cc2ccc3ncnc(Nc4ccc(OCc5cccc(F)c5)c(Cl)c4)c3c2)CC1", "assay.endpoint": "log10 of IC50", "test.value": 1.85}
{"molecule": "CC#CC(=NOCC1CN(C)CCN1C)c1ccc2ncnc(Nc3ccc(OCc4cccc(F)c4)c(Cl)c3)c2c1 (centres unmarked)", "assay.endpoint": "log10 of IC50", "test.value": 1.49}
{"molecule": "CC#C/C(=N\\OC[C@@H]1C[C@H](O)CN1)c1ccc2ncnc(Nc3ccc(OCc4ccccn4)c(Cl)c3)c2c1", "assay.endpoint": "log10 of IC50", "test.value": 1.34}
{"molecule": "CC#C/C(=N\\OCC1COCCN1)c1ccc2ncnc(Nc3ccc(COc4cccc(F)c4)c(Cl)c3)c2c1 (centres unmarked)", "assay.endpoint": "log10 of IC50", "test.value": 1.36}
{"molecule": "CC#C/C(=N\\OC[C@@H](COC)NC)c1ccc2ncnc(Nc3ccc(OCc4ccccn4)c(Cl)c3)c2c1", "assay.endpoint": "log10 of IC50", "test.value": 1.15}
{"molecule": "CC#C/C(=N\\OCC(=O)NCCN(C)C)c1ccc2ncnc(Nc3ccc(OCc4cccc(F)c4)c(Cl)c3)c2c1", "assay.endpoint": "log10 of IC50", "test.value": 0.70}
{"molecule": "CC#CC(=NOCC1CN(C)CCN1C)c1ccc2ncnc(Nc3ccc(OCc4ccccn4)c(Cl)c3)c2c1 (centres unmarked)", "assay.endpoint": "log10 of IC50", "test.value": 1.85}
{"molecule": "CC#CC(=NOC[C@@H]1CNCCO1)c1ccc2ncnc(Nc3ccc(OCc4cccc(F)c4)c(Cl)c3)c2c1 [VIII-32, dihydrochloride]", "assay.endpoint": "log10 of IC50", "test.value": 1.51}
{"molecule": "CC#C/C(=N\\OCCN1CCOCC1)c1ccc2ncnc(Nc3ccc4c(cnn4Cc4cccc(F)c4)c3)c2c1", "assay.endpoint": "log10 of IC50", "test.value": 1.46}
{"molecule": "CC#C/C(=N\\OC[C@H]1CCCN1C)c1ccc2ncnc(Nc3ccc(OCc4ccccn4)c(Cl)c3)c2c1", "assay.endpoint": "log10 of IC50", "test.value": 1.43}
{"molecule": "O=S1(=O)CCN(CCON=C(c2ccccc2)c2ccc3ncnc(Nc4ccc(OCc5cccc(F)c5)c(Cl)c4)c3c2)CC1", "assay.endpoint": "log10 of IC50", "test.value": 1.84}
{"molecule": "CC#C/C(=N\\OCCNC1CCN(S(C)(=O)=O)CC1)c1ccc2ncnc(Nc3ccc(OCc4ccccn4)c(Cl)c3)c2c1", "assay.endpoint": "log10 of IC50", "test.value": 1.49}
{"molecule": "CC#C/C(=N\\OC[C@H]1CNC[C@@H](C)O1)c1ccc2ncnc(Nc3ccc(OCc4ccccn4)c(Cl)c3)c2c1", "assay.endpoint": "log10 of IC50", "test.value": 1.90}
{"molecule": "CC#CC(=NOCCNCC)c1ccc2ncnc(Nc3ccc(OCc4cccc(F)c4)c(Cl)c3)c2c1", "assay.endpoint": "log10 of IC50", "test.value": 1.38}
{"molecule": "CC#C/C(=N\\OCCNC[C@@H]1CCCO1)c1ccc2ncnc(Nc3ccc4c(cnn4Cc4cccc(F)c4)c3)c2c1", "assay.endpoint": "log10 of IC50", "test.value": 1.40}
{"molecule": "CC#C/C(=N\\OCCNCCOC(N)=O)c1ccc2ncnc(Nc3ccc(OCc4ccccn4)c(Cl)c3)c2c1", "assay.endpoint": "log10 of IC50", "test.value": 1.45}
{"molecule": "CNCCO/N=C(\\C#CC1CC1)c1ccc2ncnc(Nc3ccc(OCc4cccc(F)c4)c(Cl)c3)c2c1", "assay.endpoint": "log10 of IC50", "test.value": 1.51}
{"molecule": "CC#C/C(=N\\OCCNCCOC(N)=O)c1ccc2ncnc(Nc3ccc(OCc4cccc(F)c4)c(Cl)c3)c2c1", "assay.endpoint": "log10 of IC50", "test.value": 1.08}
{"molecule": "CC#C/C(=N\\OCCN1CCC(NC(C)=O)CC1)c1ccc2ncnc(Nc3ccc(OCc4cccc(F)c4)c(Cl)c3)c2c1", "assay.endpoint": "log10 of IC50", "test.value": 1.38}
{"molecule": "CC#C/C(=N\\OCCN1CC[C@@H](NC(C)=O)C1)c1ccc2ncnc(Nc3ccc(OCc4ccccn4)c(Cl)c3)c2c1", "assay.endpoint": "log10 of IC50", "test.value": 1.45}
{"molecule": "CC#C/C(=N\\OCCNC(C)COC)c1ccc2ncnc(Nc3ccc(OCc4ccccn4)c(Cl)c3)c2c1 (centres unmarked)", "assay.endpoint": "log10 of IC50", "test.value": 1.70}
{"molecule": "CC#C/C(=N\\OCCNC1CCOCC1)c1ccc2ncnc(Nc3ccc(OCc4cccc(F)c4)c(Cl)c3)c2c1", "assay.endpoint": "log10 of IC50", "test.value": 1.40}
{"molecule": "CC#C/C(=N\\OC[C@@H]1CCCN1CCOC)c1ccc2ncnc(Nc3ccc(OCc4cccc(F)c4)c(Cl)c3)c2c1", "assay.endpoint": "log10 of IC50", "test.value": 1.45}
